- target.of.assay: T1, SrbA bHLHZ (Aspergillus fumigatus, UniProt Q4WIN1 161-267)
- T1 sequence: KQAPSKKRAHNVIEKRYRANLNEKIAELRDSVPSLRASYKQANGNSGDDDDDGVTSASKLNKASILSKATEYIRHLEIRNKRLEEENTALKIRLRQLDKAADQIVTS
- test.method.notes: SPR; apparent Kd; Rmax 197.6, two homodimers proposed; SPR on immobilised biotinylated duplexes, 1:1 model with mass transport; buffer, salt, pH and temperature not stated (protocols of refs 19, 54)
- assay.context: protein: recombinant; chain copies: 2; label: 5' biotin on strand 1; blunt
pKd: −log10 of the molar value.
reported.endpoint: pKd

binder	reported.endpoint	observed.value
SRE1+SRE2 (cyp51Ap-320-32) (dsDNA) DNA 1: AGAATCACGCGGTCCGGATGTGTGCTGAGCCG DNA 2: CGGCTCAGCACACATCCGGACCGCGTGATTCT	pKd	7.66
